Hello, the source for this data is patent US10364245B2, in case you need it.

Target: p38 alpha (Homo sapiens, UniProt Q16539)
Sequence (Q16539 whole entry): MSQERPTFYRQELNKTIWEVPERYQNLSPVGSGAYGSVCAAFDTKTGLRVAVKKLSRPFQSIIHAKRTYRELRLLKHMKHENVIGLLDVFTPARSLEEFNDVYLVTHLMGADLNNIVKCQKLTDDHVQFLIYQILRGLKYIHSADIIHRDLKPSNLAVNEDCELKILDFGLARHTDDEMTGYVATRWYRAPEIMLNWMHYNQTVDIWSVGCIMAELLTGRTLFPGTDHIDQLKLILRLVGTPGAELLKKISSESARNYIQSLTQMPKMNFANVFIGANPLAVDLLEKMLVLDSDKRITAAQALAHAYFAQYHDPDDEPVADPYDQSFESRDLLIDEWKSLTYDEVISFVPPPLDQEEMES
Test: P38 alpha enzyme inhibition assay (Alphascreen kinase activity assay)
Details: 100 pM p38 alpha, 2 hours preincubation at 25° C., 250 μM ATP, ATF-2 fusion protein; read-out: p38α inhibition
Experimental: P38 Alpha Enzyme Inhibition Assay The inhibitory activity of compounds was determined using an Alphascreen® (Perkin Elmer) based kinase activity assay. […] Detection was performed by measuring luminescence following the addition of Alphascreen Donor beads (Perkin Elmer 6765300) and Protein A Alphascreen Acceptor beads (Perkin Elmer 6760137), both at a final concentration of 20 ug/ml. IC50 values were determined from concentration-response curves.
Could you please report measured IC50 for the items listed next?

// fetch IC50 given entry CC(C)(C)c1cc(NC(=O)N[C@H]2CC[C@@H](Oc3ccc4nnc(C(C)(C)C)n4c3)c3ccccc32)cc(C(=O)NCCN2CC[C@H](O)C2)n1
< 1 nM

Check the records and state IC50 for CN(C)CCN(C)C(=O)c1nc(NC(=O)N[C@H]2CC[C@@H](Oc3ccc4nnc(C(C)(C)C)n4c3)c3ccccc32)cc(C(C)(C)C)n1
1 to 10 nM

Give reported IC50 value for COCCN(C)CCNC(=O)c1nc(NC(=O)N[C@H]2CC[C@@H](Oc3ccc4nnc(C(C)(C)C)n4c3)c3ccccc32)cc(C(C)(C)C)n1
1 to 10 nM

Supply recorded IC50 for CCN(C)CCNC(=O)c1nc(NC(=O)N[C@H]2CC[C@@H](Oc3ccc4nnc(N(CC)CC)n4c3)c3ccccc32)cc(C(C)(C)C)n1 here.
< 1 nM

Please indicate IC50 recorded for COCCN(C)C(C)(C)CNC(=O)c1nc(NC(=O)N[C@H]2CC[C@@H](Oc3ccc4nnc(C(C)(C)COC)n4c3)c3ccccc32)cc(C(C)(C)C)n1
1 to 10 nM

Give reported IC50 value for COCC(C)(C)c1nnc2ccc(O[C@@H]3CC[C@H](NC(=O)Nc4cc(C(=O)NCCN(C)C)nc(C(C)(C)C)c4)c4ccccc43)cn12
< 1 nM

Please report the measured IC50 for CN1CCC[C@@]1(C)c1nnc2ccc(O[C@@H]3CC[C@H](NC(=O)Nc4cc(C(C)(C)C)ccn4)c4ccccc43)cn12
< 1 nM

Fill in reported IC50 for this entry: CN(C)CCNC(=O)c1nc(NC(=O)N[C@H]2CC[C@@H](Oc3ccc4nnc(C5(C)CC5)n4c3)c3ccccc32)cc(C(C)(C)C)n1
< 1 nM
